Readings of Ratio EC50 for the listed compounds
Species: Homo sapiens
protocol description: Selectivity ratio of EC50 for human KOR to EC50 for human DOR
Just the number.

Query string: # query: Ratio EC50 of entry COc1ccc2c3c1O[C@H]1[C@@H](O)[C@H](OC)C[C@H]4[C@@H](C2)N(C)CC[C@@]341
Result string: 4

Query string: Requested read-out: Ratio EC50. Entry: COc1cc(C)c2c3c1O[C@H]1[C@@H](O)[C@H](C)C[C@H]4[C@@H](C2)N(C)CC[C@@]341
Result string: 1

Query string: Please report the recorded Ratio EC50 for COc1cc(C)c2c3c1O[C@H]1[C@H](F)[C@H](C)C[C@H]4[C@@H](C2)N(C)CC[C@@]341 .
Result string: 1

Query string: Fill in: Ratio EC50 of COc1ccc2c3c1O[C@H]1[C@@H](OC)[C@H](C)C[C@H]4[C@@H](C2)N(C)CC[C@@]341 is ___
Result string: 13

###

Species on record: Homo sapiens
protocol description: Selectivity ratio of EC50 for human KOR to EC50 for human DOR
measurement kind: Ratio EC50

Solved cases (3 shown):
{"cpd smiles": "C[C@@H]1C[C@H]2[C@H]3Cc4ccc(O)c5c4[C@@]2(CCN3C)[C@@H](O5)[C@H]1O", "measurement kind": "Ratio EC50", "reported": 20}
{"cpd smiles": "COc1ccc2c3c1O[C@H]1[C@@H](O)[C@H](C)C[C@H]4[C@@H](C2)N(C)CC[C@@]341", "measurement kind": "Ratio EC50", "reported": 8}
{"cpd smiles": "COc1ccc2c3c1O[C@H]1[C@@H](O)[C@H](F)C[C@H]4[C@@H](C2)N(C)CC[C@@]341", "measurement kind": "Ratio EC50", "reported": 1}

Alright, here's another molecule for you.
Query string: Param item = COc1ccc2c3c1O[C@H]1[C@@H](O)[C@H](O)C[C@H]4[C@@H](C2)N(C)CC[C@@]341 ; retrieve measured Ratio EC50.
Result string: 1

###

Reported values: EC50 for Kappa-type opioid receptor (Homo sapiens, UniProt P41145), one per item.
Report only the number, with the unit µM understood.

{"cpd smiles": "C[C@@H]1C[C@H]2[C@H]3Cc4ccc(O)c5c4[C@@]2(CCN3C)[C@@H](O5)[C@H]1O", "reported": 1.6}
{"cpd smiles": "COc1ccc2c3c1O[C@H]1[C@@H](O)[C@H](O)C[C@H]4[C@@H](C2)N(C)CC[C@@]341", "reported": 126}
{"cpd smiles": "COc1ccc2c3c1O[C@H]1[C@@H](O)[C@H](OC)C[C@H]4[C@@H](C2)N(C)CC[C@@]341", "reported": 50}

Query string: Please tell me: EC50 of COc1cc(C)c2c3c1O[C@H]1[C@H](F)[C@H](C)C[C@H]4[C@@H](C2)N(C)CC[C@@]341 , system Kappa-type opioid receptor (Homo sapiens, UniProt P41145)?
Result string: 5

Query string: Test system Kappa-type opioid receptor (Homo sapiens, UniProt P41145); read-out EC50; what value for COc1ccc2c3c1O[C@H]1[C@@H](OC)[C@H](C)C[C@H]4[C@@H](C2)N(C)CC[C@@]341 ?
Result string: 32

Query string: Look up EC50 with Kappa-type opioid receptor (Homo sapiens, UniProt P41145) for this compound: COc1ccc2c3c1O[C@H]1[C@@H](O)[C@H](C)C[C@H]4[C@@H](C2)N(C)CC[C@@]341
Sequence (P41145 whole entry): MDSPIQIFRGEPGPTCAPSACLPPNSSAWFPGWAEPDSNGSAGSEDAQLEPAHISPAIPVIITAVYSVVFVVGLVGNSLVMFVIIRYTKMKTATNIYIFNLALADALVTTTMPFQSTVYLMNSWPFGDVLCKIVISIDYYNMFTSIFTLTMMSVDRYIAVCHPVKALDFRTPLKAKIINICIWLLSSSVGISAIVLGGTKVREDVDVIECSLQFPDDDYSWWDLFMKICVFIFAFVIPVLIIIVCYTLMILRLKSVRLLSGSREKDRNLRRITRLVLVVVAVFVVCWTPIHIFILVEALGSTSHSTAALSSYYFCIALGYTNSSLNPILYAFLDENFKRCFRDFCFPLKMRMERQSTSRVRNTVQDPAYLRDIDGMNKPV
Result string: 25

###

experimental target: Mu-type opioid receptor (Homo sapiens, UniProt P35372)
Sequence (P35372 whole entry): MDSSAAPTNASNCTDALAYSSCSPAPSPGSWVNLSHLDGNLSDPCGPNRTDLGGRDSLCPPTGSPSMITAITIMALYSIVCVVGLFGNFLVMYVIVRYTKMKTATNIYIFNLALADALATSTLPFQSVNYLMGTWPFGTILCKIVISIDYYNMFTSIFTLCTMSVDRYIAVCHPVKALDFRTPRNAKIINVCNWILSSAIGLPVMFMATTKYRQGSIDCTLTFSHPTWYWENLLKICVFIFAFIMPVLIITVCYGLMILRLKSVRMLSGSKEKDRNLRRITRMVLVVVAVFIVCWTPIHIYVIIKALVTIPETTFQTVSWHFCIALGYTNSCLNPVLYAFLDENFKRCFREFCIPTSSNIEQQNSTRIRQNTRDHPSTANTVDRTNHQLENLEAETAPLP
protocol description: Agonist activity at human MOR assessed as inhibition of forskolin-stimulated cAMP accumulation after 30 mins by cell based TR-FRET assay
pEC50: −log10 of the molar value.
Classification field: label 1 = pEC50 at or over 5; label 0 = pEC50 under 5.

As a guide, the following entries are already answered.
{"cpd smiles": "COc1cc(C)c2c3c1O[C@H]1[C@H](F)[C@H](C)C[C@H]4[C@@H](C2)N(C)CC[C@@]341", "cat": "label 1"}
{"cpd smiles": "COc1ccc2c3c1O[C@H]1[C@@H](O)[C@H](O)C[C@H]4[C@@H](C2)N(C)CC[C@@]341", "cat": "label 0"}
{"cpd smiles": "COc1cc(C)c2c3c1O[C@H]1[C@@H](O)[C@H](C)C[C@H]4[C@@H](C2)N(C)CC[C@@]341", "cat": "label 1"}
{"cpd smiles": "COc1ccc2c3c1O[C@H]1[C@@H](O)[C@H](F)C[C@H]4[C@@H](C2)N(C)CC[C@@]341", "cat": "label 0"}
{"cpd smiles": "COc1ccc2c3c1O[C@H]1[C@@H](O)[C@H](OC)C[C@H]4[C@@H](C2)N(C)CC[C@@]341", "cat": "label 0"}
{"cpd smiles": "COc1ccc2c3c1O[C@H]1[C@@H](O)[C@H](C)C[C@H]4[C@@H](C2)N(C)CC[C@@]341", "cat": "label 1"}
{"cpd smiles": "C[C@@H]1C[C@H]2[C@H]3Cc4ccc(O)c5c4[C@@]2(CCN3C)[C@@H](O5)[C@H]1O", "cat": "label 1"}

Query string: Quick check, pEC50 >= 5? COc1ccc2c3c1O[C@H]1[C@@H](OC)[C@H](C)C[C@H]4[C@@H](C2)N(C)CC[C@@]341
Result string: label 1

###

# inhibition annotations
experimental target: Delta-type opioid receptor (Homo sapiens)
Sequence (P41143 whole entry): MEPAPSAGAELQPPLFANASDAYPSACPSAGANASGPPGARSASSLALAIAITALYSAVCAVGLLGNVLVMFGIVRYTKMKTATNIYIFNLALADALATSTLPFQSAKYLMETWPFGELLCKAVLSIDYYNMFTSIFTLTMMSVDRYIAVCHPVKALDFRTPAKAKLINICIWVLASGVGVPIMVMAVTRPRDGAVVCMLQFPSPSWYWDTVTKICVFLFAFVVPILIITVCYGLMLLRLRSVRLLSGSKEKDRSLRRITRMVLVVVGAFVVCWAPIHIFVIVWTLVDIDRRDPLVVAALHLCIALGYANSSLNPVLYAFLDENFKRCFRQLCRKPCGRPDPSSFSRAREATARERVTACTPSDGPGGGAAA
protocol description: Activation of human DOR assessed as inhibition of forskolin-stimulated cAMP accumulation after 30 mins by cell based TR-FRET assay relative to DPDPE
Type: functional
Express it in %; write the number only.

Use these answered entries as a reference point.
{"cpd smiles": "COc1ccc2c3c1O[C@H]1[C@@H](O)[C@H](C)C[C@H]4[C@@H](C2)N(C)CC[C@@]341", "inhibition, %": 97}
{"cpd smiles": "C[C@@H](NC(=O)[C@@H](N)Cc1ccc(O)cc1)C(=O)NCC(=O)N(C)[C@@H](Cc1ccccc1)C(=O)NCCO", "inhibition, %": 99}

Query string: Would you mind telling me what inhibition value was observed for COc1cc(C)c2c3c1O[C@H]1[C@H](F)[C@H](C)C[C@H]4[C@@H](C2)N(C)CC[C@@]341 ?
Result string: 86

###

Species: Homo sapiens
protocol description: Selectivity ratio of EC50 for human KOR to EC50 for human MOR
Where Ratio EC50 equals or exceeds 3, the correct label is True; where it does not, the label is False.

Examples with answers:
{"cpd smiles": "COc1ccc2c3c1O[C@H]1[C@@H](OC)[C@H](C)C[C@H]4[C@@H](C2)N(C)CC[C@@]341", "cat": "True"}
{"cpd smiles": "C[C@@H]1C[C@H]2[C@H]3Cc4ccc(O)c5c4[C@@]2(CCN3C)[C@@H](O5)[C@H]1O", "cat": "True"}
{"cpd smiles": "COc1ccc2c3c1O[C@H]1[C@@H](O)[C@H](O)C[C@H]4[C@@H](C2)N(C)CC[C@@]341", "cat": "True"}
{"cpd smiles": "COc1cc(C)c2c3c1O[C@H]1[C@H](F)[C@H](C)C[C@H]4[C@@H](C2)N(C)CC[C@@]341", "cat": "False"}
{"cpd smiles": "COc1ccc2c3c1O[C@H]1[C@@H](O)[C@H](F)C[C@H]4[C@@H](C2)N(C)CC[C@@]341", "cat": "False"}

Query string: Is Ratio EC50 for COc1ccc2c3c1O[C@H]1[C@@H](O)[C@H](C)C[C@H]4[C@@H](C2)N(C)CC[C@@]341 at or above 3?
Result string: True

###

experimental target: Kappa-type opioid receptor (Mus musculus, UniProt P33534)
Sequence (P33534 whole entry): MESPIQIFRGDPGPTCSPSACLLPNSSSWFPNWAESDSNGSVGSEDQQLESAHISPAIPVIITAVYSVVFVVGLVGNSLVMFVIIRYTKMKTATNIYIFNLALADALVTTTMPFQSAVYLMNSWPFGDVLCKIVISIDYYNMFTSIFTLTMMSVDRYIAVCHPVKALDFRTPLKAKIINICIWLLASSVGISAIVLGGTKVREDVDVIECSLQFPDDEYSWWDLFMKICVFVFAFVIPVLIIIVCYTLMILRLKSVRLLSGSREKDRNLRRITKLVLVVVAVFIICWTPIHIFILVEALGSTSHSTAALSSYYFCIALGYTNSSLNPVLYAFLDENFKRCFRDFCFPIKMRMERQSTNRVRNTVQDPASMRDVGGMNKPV
protocol description: Agonist activity at mouse KOR assessed as inhibition of forskolin-stimulated cAMP accumulation after 30 mins by cell based TR-FRET assay
measurement kind: pEC50
Note on pEC50: it is the negative log10 of concentration, concentration in mol/L.

{"cpd smiles": "C[C@@H]1C[C@H]2[C@H]3Cc4ccc(O)c5c4[C@@]2(CCN3C)[C@@H](O5)[C@H]1O", "pEC50": 5.80}
{"cpd smiles": "COc1ccc2c3c1O[C@H]1[C@@H](O)[C@H](C)C[C@H]4[C@@H](C2)N(C)CC[C@@]341", "pEC50": 4.49}
{"cpd smiles": "COc1ccc2c3c1O[C@H]1C(=O)CC[C@@]4(O)[C@@H](C2)N(C)CC[C@]314", "pEC50": 4.80}
{"cpd smiles": "COc1ccc2c3c1O[C@H]1[C@@H](O)[C@H](O)C[C@H]4[C@@H](C2)N(C)CC[C@@]341", "pEC50": 3.80}
{"cpd smiles": "COc1cc(C)c2c3c1O[C@H]1[C@@H](O)[C@H](C)C[C@H]4[C@@H](C2)N(C)CC[C@@]341", "pEC50": 4.30}
{"cpd smiles": "COc1ccc2c3c1O[C@H]1[C@@H](OC)[C@H](C)C[C@H]4[C@@H](C2)N(C)CC[C@@]341", "pEC50": 4.30}

Next, consider the following compound.
Query string: Given the entry COc1cc(C)c2c3c1O[C@H]1[C@H](F)[C@H](C)C[C@H]4[C@@H](C2)N(C)CC[C@@]341 , report its measured pEC50.
Result string: 5.00

These entries and their values trace back to ChEMBL document CHEMBL2417445.
